Attribution: paper PMC10935252

# system.under.test: α-glucosidase from yeast
# experimental.details: α-Glucosidase inhibition assay
# conditions.used: substrate maltose 0.5 mM, pH 6.8, 37 °C; mean ± SD of three independent experiments; read-out: IC50 against α-glucosidase from yeast
measure.name: IC50

Worked cases, answers included:
C[C@]1(O)C[C@@H]2[C@H](O1)[C@@H](O)[C@@H](O)CN2Cc1ccccc1O [Compound 26] :: > 20 µM
COc1cc(CN2C[C@H](O)[C@H](O)[C@H]3O[C@@](C)(O)C[C@H]32)ccc1O [Compound 33] :: > 20 µM
C[C@]1(O)C[C@@H]2[C@@H](O1)[C@H](O)[C@H](O)CN2Cc1cccc(O)c1 [Compound 16] :: > 20 µM

Just so you know, measured IC50 for CC(=O)C[C@H]1NC[C@@H](O)[C@@H](O)[C@@H]1O [Compound 6] came out at > 20 µM
